For each entry below, report its IC50 value.
molecular target: Mtb Lpd (Mycobacterium tuberculosis (strain ATCC 25618 / H37Rv), UniProt P9WHH9); format: biochemical; conditions: read-out: LPD IC50
Give the value, in units of nM, as a plain number.

Query: Look up Mtb Lpd (Mycobacterium tuberculosis (strain ATCC 25618 / H37Rv), UniProt P9WHH9) data: IC50 of Cc1cc(S(=O)(=O)N(C)CC(=O)Nc2ccc(N3CCOCC3)c(C)c2)c2[nH]ncc2c1 [Example 32] , then report it.
Response: 4.3

Query: Specify IC50 for Cc1cc(S(=O)(=O)N(C)CC(=O)NC2COC2)c2n[nH]cc2c1 [Example 50] , system Mtb Lpd (Mycobacterium tuberculosis (strain ATCC 25618 / H37Rv), UniProt P9WHH9).
Response: 73.8

Query: Give IC50 for COc1ccc(NC(=O)CN(C)S(=O)(=O)c2cc(C)cc3c(C)n[nH]c23)cc1C [Example 9] tested on Mtb Lpd (Mycobacterium tuberculosis (strain ATCC 25618 / H37Rv), UniProt P9WHH9).
Response: 27.3

Query: Please report the measured IC50 for Cc1cc(S(=O)(=O)N2CC[C@H]2C(=O)Nc2ccn(C)c(=O)c2)c2[nH]ncc2c1 [Example 27] tested on Mtb Lpd (Mycobacterium tuberculosis (strain ATCC 25618 / H37Rv), UniProt P9WHH9).
Response: 54.5

Query: State IC50 (Mtb Lpd (Mycobacterium tuberculosis (strain ATCC 25618 / H37Rv), UniProt P9WHH9)) of CC#CCNC(=O)[C@@H]1CCN1S(=O)(=O)c1cc(C)cc2cn[nH]c12 [Example 200] .
Response: 379

Query: Tell me IC50 of Cc1cc(S(=O)(=O)N2CC[C@H]2C(=O)NC2CCCCC2)c2[nH]ncc2c1 [Example 70] when tested on Mtb Lpd (Mycobacterium tuberculosis (strain ATCC 25618 / H37Rv), UniProt P9WHH9).
Response: 279

Query: Quote IC50 with test system Mtb Lpd (Mycobacterium tuberculosis (strain ATCC 25618 / H37Rv), UniProt P9WHH9) for Cc1cc(S(=O)(=O)N(C)CC(=O)NC2CCc3cnccc32)c2n[nH]cc2c1 (centres unmarked) [Example 114]
Response: 95.4

Query: Please report IC50 with Mtb Lpd (Mycobacterium tuberculosis (strain ATCC 25618 / H37Rv), UniProt P9WHH9) for item Cc1cc(S(=O)(=O)N2CC[C@H]2C(=O)Nc2ccc(C#N)c(Cl)c2)c2[nH]ncc2c1 [Example 86] .
Response: 41.4
